tested-on: Activated human plasma kallikrein (Enzyme Research Laboratories, HPKa 1303) (human, UniProt P03952 20-638)
Sequence (P03952 20-638 limits assumed): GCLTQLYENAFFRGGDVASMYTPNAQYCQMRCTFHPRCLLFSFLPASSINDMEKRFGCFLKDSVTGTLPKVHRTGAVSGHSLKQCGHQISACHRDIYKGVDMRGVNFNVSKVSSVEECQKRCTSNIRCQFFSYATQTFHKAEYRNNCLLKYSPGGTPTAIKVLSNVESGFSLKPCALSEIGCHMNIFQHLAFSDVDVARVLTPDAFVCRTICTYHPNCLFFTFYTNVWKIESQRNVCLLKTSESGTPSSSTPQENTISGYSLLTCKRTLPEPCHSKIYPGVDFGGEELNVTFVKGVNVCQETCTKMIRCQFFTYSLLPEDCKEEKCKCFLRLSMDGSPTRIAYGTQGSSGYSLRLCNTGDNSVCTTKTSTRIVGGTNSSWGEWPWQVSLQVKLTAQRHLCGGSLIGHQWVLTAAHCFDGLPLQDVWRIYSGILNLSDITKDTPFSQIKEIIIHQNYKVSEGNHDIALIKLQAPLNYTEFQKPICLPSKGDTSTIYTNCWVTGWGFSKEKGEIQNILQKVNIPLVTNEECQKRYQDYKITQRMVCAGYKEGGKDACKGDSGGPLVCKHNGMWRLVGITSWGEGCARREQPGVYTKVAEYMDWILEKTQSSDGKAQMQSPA
procedure-details: cell-based or functional assay
Bridge positions count the residues as written; N and C are the ends. Square brackets hold non-standard residues; d marks the D form. Ends that are not written are not given here. * marks the point of attachment. mXylyl = xylyl linker from dibromoxylene joining the two cysteines; des‑NH2 = missing amino-terminal amine group; NMeE = CN[C@@H](CCC(=O)O)C(=O)O; dPhg = N[C@@H](C(=O)O)c1ccccc1; Chg = N[C@H](C(=O)O)C1CCCCC1; Phg = N[C@H](C(=O)O)c1ccccc1; Tle = CC(C)(C)[C@H](N)C(=O)O; Tranexamic = tranexamic acid; hLys = NCCCCC[C@H](N)C(=O)O; NMeS = CN[C@@H](CO)C(=O)O; mLutidine = meta-lutidine; Heptanoyl = CCCCCCC(=O)*; Nle = CCCC[C@H](N)C(=O)O; Nva = CCC[C@H](N)C(=O)O; Ac3c = NC1(C(=O)O)CC1; Aib = CC(C)(N)C(=O)O; Sar = CNCC(=O)O
Output: class label from Avg. IC50. Mapping: 0 (below 20 nM), 1 (20 nM to below 600 nM), 2 (600 nM or more)

Here are 6 binders together with their reported answers.
MCE[NMeS]ICRV-NH2 (linker 2-6 via mXylyl) [R2019] ... 1
MC[NMeE]ESICRV-NH2 (linker 2-7 via mXylyl; not fully specified; printed as [mXylyl(2,6)]MC-nMeE-ESICRV-NH2) [R2027] ... 2
Ac-CASFCR[Tle]-NH2 (linker 1-5 via mXylyl) [R2059] ... 1
{des‑NH2}-C[Aib]A[Chg]CR[Tle]-NH2 (linker 1-5 via mXylyl) [R2091] ... 0
Ac-CAS[Phg]CR[Chg]-NH2 (linker 1-5 via mXylyl; not fully specified (residue 2); printed as [mXylyl(1,5)]Ac-C-a-S-Phg-CR-Chg-NH2) [R2071] ... 2
Ac-CA[Sar][Phg]CR[Tle]-NH2 (linker 1-5 via mXylyl) [R2052] ... 1

Category lookup for the binder {des‑NH2}-C[Tranexamic][Phg]CR[Tle]-NH2 (linker 1-4 via mXylyl (inferred); not fully specified; printed as [mXylyl(1,5)](des-NH2)C-Tranexamic-Phg-CR-Tbg-NH2) [R2090]
2

Classify this binder: Heptanoyl-CA[NMeS][Phg]CR[Tle]-NH2 (linker 1-5 via mXylyl; not fully specified (residue 2); printed as [mXylyl(1,5)]Heptanoyl-C-a-nMeS-Phg-C-R-Tbg-NH2) [R2068]
1

Band of {des‑NH2}-C[Aib]A[dPhg]CR[Tle]LRYSE-NH2 (linker 1-5 via mXylyl) [R2098] ?
1

Class (by measured Avg. IC50) for Ac-CASICRV-NH2 (linker 1-5 via mXylyl; not fully specified (residue 2); printed as [mXylyl(1,5)]Ac-C-a-SICRV-NH2) [R2047]
0

Please report the category associated with MCESICRV-NH2 (linker 2-6 via mLutidine) [R2044] , nothing else.
2

Assign a bin to MCESICRVLRYSE-NH2 (linker 2-6 via mXylyl) [R2004]
0

Given {des‑NH2}-C[Ac3c]A[dPhg]CR[Tle]-NH2 (linker 1-5 via mXylyl) [R2092] , name the class its Avg. IC50 places it in.
2

// return the class label for MCESNCRV-NH2 (linker 2-6 via mXylyl) [R2088]
2

Returns: class label. Input: Ac-CESICRVLK-NH2 (linker 1-5 via mXylyl) [R2038]
1

Which class is correct for the following binder? [Nva]CESICRV-NH2 (linker 2-6 via mXylyl) [R2009]
0

Kindly state the category for this binder: ACESICRV-NH2 (linker 2-6 via mXylyl) [R2025]
0

Hey, which category is Ac-C[Nle]S[Phg]CR[Tle]-NH2 (linker 1-5 via mXylyl) [R2065] in, do you know?
0

Please indicate the class for [Nva]CESIC[hLys]V-NH2 (linker 2-6 via mXylyl) [R2029] based on its Avg. IC50.
2

Quick check: band for Ac-CESICRV-NH2 (linker 1-5 via mXylyl) [R2023]
0

All values here come from patent US20150166606A1.
